meta.source: ChEMBL document CHEMBL4715933

# Organism: Homo sapiens
# measurement.protocol: Selectivity ratio of IC50 for JAK1 (unknown origin) by ATP competitive binding assay to IC50 for N-terminal GST-tagged human recombinant HPK1 (1 to 346 residues ) expressed in baculovirus-infected Sf9 cells by HTRF lanthascreen binding assay
Below: a set of entries, each annotated with reported Ratio IC50.
Answer field: number only, no words.

Check out these entries, answers already filled in.
[
  {
    "molecule": "Cc1cccc(C)c1-c1cc2c(cn1)cnn2-c1ccc(N2CCN(C)CC2)cc1",
    "Ratio IC50": 35
  },
  {
    "molecule": "Cc1cccc(F)c1-c1cc2c(cnn2-c2ccc(N3CCN(C)CC3)cc2)cc1C#N",
    "Ratio IC50": 357
  },
  {
    "molecule": "COc1cccc(F)c1-c1cc2c(cn1)cnn2-c1cccc(N2CCN(C)CC2)n1",
    "Ratio IC50": 751
  },
  {
    "molecule": "COc1cccc(F)c1-c1cc2c(cn1)cnn2-c1cccc(N2CCN(C)CC2)c1",
    "Ratio IC50": 25
  },
  {
    "molecule": "COc1cccc(F)c1-c1cc2c(cn1)cnn2-c1ccnc(N2CCN(C)CC2)n1",
    "Ratio IC50": 1480
  }
]

Briefly, Ratio IC50 measured for CNC1CCc2c1ccc(F)c2-c1cc2c(cn1)cnn2-c1ccc(N2CCN(C)CC2)cc1 (racemic) : 52

Briefly, Ratio IC50 measured for COc1cccc(F)c1-c1cc2c(cn1)cnn2-c1cccc(N2CCOCC2)n1 : 92

Briefly, Ratio IC50 measured for CN1CCN(c2ccc(-n3ncc4cnc(-c5ccccc5)cc43)cc2)CC1 : 12

Briefly, Ratio IC50 measured for Cc1ccccc1-c1cc2c(cn1)cnn2-c1ccc(N2CCN(C)CC2)cc1 : 24

Briefly, Ratio IC50 measured for COc1ccncc1-c1cc2c(cn1)cnn2-c1ccc(N2CCN(C)CC2)cc1 : 83

---

# Species on record: Homo sapiens
# measurement.protocol: Selectivity ratio of IC50 for JAK1 (unknown origin) by ATP competitive binding assay to IC50 for N-terminal GST-tagged human recombinant HPK1 (1 to 346 residues ) expressed in baculovirus-infected Sf9 cells by HTRF lanthascreen binding assay
We use 100 as the dividing line for Ratio IC50: on or above the line is 1, below is -1.

[
  {
    "structure.string": "COc1cccc(F)c1-c1cc2c(cn1)cnn2-c1ccc(N2CCN(C)CC2)cn1",
    "classification": -1
  },
  {
    "structure.string": "COc1cccc(F)c1-c1cc2c(cnn2-c2cccc(N3CCN(C)CC3)n2)cc1C#N",
    "classification": 1
  }
]

Q) Could you please find out whether COc1cccc(F)c1-c1cc2c(cn1)cnn2-c1ccccc1 has Ratio IC50 that meets 100 or exceeds it?
A) -1

Q) Could you please find out whether CNC(=O)N1CCN(c2cccc(-n3ncc4cnc(-c5c(F)cccc5OC)cc43)n2)CC1 has Ratio IC50 that meets 100 or exceeds it?
A) 1

Q) Could you please find out whether COc1ccncc1-c1ccc2cnn(-c3ccnc(N4CCOCC4)c3)c2c1 has Ratio IC50 that meets 100 or exceeds it?
A) -1

---

# measurement.protocol: Mean residence time in Wistar Han rat at 0.1 mg/kg, iv
# Assay type: ADME, organism-based
# test.conditions: in vivo
Below: a set of entries, each annotated with reported MRT.
Output spec: scalar in h, unitless text.

Check out these entries, answers already filled in.
[
  {
    "structure.string": "C[C@@H]1CN(c2cc(-n3ncc4ccc(-c5cnn6c5OCCC6)cc43)ccn2)C[C@H](C)N1C",
    "MRT, h": 2.6
  },
  {
    "structure.string": "CN1CCN(c2cc(-c3n[nH]c4ccc(-c5cnn6c5CCC6)cc34)ccn2)CC1",
    "MRT, h": 1
  }
]

Briefly, MRT measured for CN1CCN(c2cc(-c3n[nH]c4cnc(-c5cnn6c5CCC6)cc34)ccn2)CC1 : 1.9
